Reported interaction score values for the following binders.
Target: T1, P2-AA-12HAA-E
T1 chain: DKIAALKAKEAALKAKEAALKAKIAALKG
Experiment: two-hybrid library CCmax;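 note: natural log of median RNA to DNA barcode read ratio; higher means stronger binding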
Details: mean of both orientations
Just the number, please.

Data request: Record request: interaction score value, item DEIAALEAETAALEAETAALEAEIAALEG [P1-AA-12HAA-T]
Data returned: 0.124

Data request: What about DEIAALEAEKAALEAEKAALEAEIAALEG [P1-AA-12HAA-K] ?
Data returned: -0.226

Data request: What about DEIAALEAEAAALEAEAAALEAEIAALEG [P1-AA-12HAA-A] ?
Data returned: 0.947

Just for reference, paper PMC10397247 is where these values come from.
